Procedure summary: Inhibition of AZT glucuronidation by human UGT enzymes from liver microsomes
Parameters: species or system Microsome
# pKi per record follows
// scale note: pKi = -log10(conc_M); give the bare number

Prompt: GET /values?readout=pKi&item= `Nc1ccc(S(=O)(=O)Nc2nccs2)cc1`
Response: 1.62

Prompt: So what's the measured pKi for this one? O=C1C(CC[S+]([O-])c2ccccc2)C(=O)N(c2ccccc2)N1c1ccccc1 (centres undefined)
Response: 2.68

Prompt: Record request: pKi value, item `Nc1ccc(S(=O)(=O)c2ccc(N)cc2)cc1`
Response: 2.77

Prompt: Which pKi value belongs to Cc1cc(CC(=O)O)n(C)c1C(=O)c1ccc(Cl)cc1 [ZOMEPIRAC] ?
Response: 2.68

Prompt: Item `C[C@]12CC[C@H]3[C@@H](CCC4=CC(=O)CC[C@@]43C)[C@@H]1CC[C@@H]2O` has what recorded pKi?
Response: 3.60

Further cases:
Prompt: For CN1C(=O)C(O)N=C(c2ccccc2)c2cc(Cl)ccc21 (centres undefined) , what is its reported pKi?
Response: 3.24

Prompt: Consider the molecule shown here: `COc1ccc2c(c1)c(CC(=O)O)c(C)n2C(=O)c1ccc(Cl)cc1` What is its recorded pKi?
Response: 3.70

Prompt: So what's the measured pKi for this one? `Cc1noc(NS(=O)(=O)c2ccc(N)cc2)c1C`
Response: 1.33

Prompt: Entry O=C1Nc2ccc(Cl)cc2C(c2ccccc2Cl)=NC1O (centres undefined) : reported pKi = ?
Response: 3.80
